Each entry below carries its recorded protein stability index.
B1: TPRG1 (parent)
chain: ETIQGFWLLTKIDHWNNEKERILL

Variants of: B1
Test: protein stability index of a GFP-peptide fusion (GPS, HEK-293T) (PSI 1-6); higher = more stable;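 further: lentivirally expressed fusions sorted by FACS into six bins by GFP to DsRed ratio, PSI derived from sequencing read proportions per bin multiplied by bin number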
Details: c terminus: a fixed tail appended
Enter the number alone.

Guide cases for protein stability index, answers given:
{"mutant.designation": "L8A", "protein stability index": 2.08}
{"mutant.designation": "L8N", "protein stability index": 1.99}

Task item: Answer with the recorded protein stability index of `L24C` only.
Reply: 2.36

Task item: Answer with the recorded protein stability index of `N17I` only.
Reply: 2.46

Task item: Answer with the recorded protein stability index of `H14C` only.
Reply: 1.39

Task item: Answer with the recorded protein stability index of `L9P` only.
Reply: 2.7

Task item: Answer with the recorded protein stability index of `G5S` only.
Reply: 2

Task item: Answer with the recorded protein stability index of `R21K` only.
Reply: 1.66

Task item: Answer with the recorded protein stability index of `E20A` only.
Reply: 3.4

Task item: Answer with the recorded protein stability index of `N17A` only.
Reply: 2.33

Task item: Answer with the recorded protein stability index of `T10G` only.
Reply: 2.35

Task item: Answer with the recorded protein stability index of `E18M` only.
Reply: 2.79

Task item: Answer with the recorded protein stability index of `Q4Y` only.
Reply: 2.77
